# Study System: recombinant human AChE (Homo sapiens)
# Sequence (P22303 32-614): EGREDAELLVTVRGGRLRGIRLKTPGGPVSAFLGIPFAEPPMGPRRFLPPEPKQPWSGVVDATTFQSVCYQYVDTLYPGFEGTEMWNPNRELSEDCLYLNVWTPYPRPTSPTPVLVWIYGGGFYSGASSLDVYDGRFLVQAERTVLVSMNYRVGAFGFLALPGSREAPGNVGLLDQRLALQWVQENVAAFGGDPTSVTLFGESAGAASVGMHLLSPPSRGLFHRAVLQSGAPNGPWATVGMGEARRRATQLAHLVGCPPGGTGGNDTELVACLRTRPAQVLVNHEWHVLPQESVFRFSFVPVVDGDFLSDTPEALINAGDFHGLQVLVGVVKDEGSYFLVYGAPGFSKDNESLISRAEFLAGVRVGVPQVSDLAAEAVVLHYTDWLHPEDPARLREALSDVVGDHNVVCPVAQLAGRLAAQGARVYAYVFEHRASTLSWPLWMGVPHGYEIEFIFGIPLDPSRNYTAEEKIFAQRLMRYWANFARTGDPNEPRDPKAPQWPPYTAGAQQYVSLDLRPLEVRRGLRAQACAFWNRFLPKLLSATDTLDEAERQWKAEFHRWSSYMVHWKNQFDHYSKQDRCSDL
# Method Description: biochemical
Experimental Endpoint: potency (IC50), Enzyme-based assay with heat-inactivated microsomes

INSERT INTO assay_data (molecule, recorded_measurement) VALUES
  ('CCOP(=S)(OCC)SCSC(C)(C)C [Terbufos]', 'Inactive'),
  ('CCOP(=S)(OCC)Oc1cc(C)nc(C(C)C)n1 [Diazinon]', 'Inactive'),
  ('CCOP(=S)(OCC)Oc1ccc2c(C)c(Cl)c(=O)oc2c1 [Coumaphos]', 'Inactive'),
  ('COc1ccc(OC(F)(F)F)cc1CN[C@H]1CCCN[C@H]1c1ccccc1 [CP-122721, reference compound]', 'Inactive'),
  ('CCOP(=S)(OCC)SCSc1ccc(Cl)cc1 [Carbophenothion]', 'Inactive'),
  ('CCOP(=S)(OCC)SCn1c(=O)oc2cc(Cl)ccc21 [Phosalone]', 'Inactive'),
  ('[H]/N=C(\N/C(=N/[H])NCCCCCCNC(=N)NC(=N)Nc1ccc(Cl)cc1)Nc1ccc(Cl)cc1 [Chlorhexidine diacetate, reference compound]', 'Inactive');
